- Assay explanation: qHTS assay for small molecule activators of the nuclear factor-kappa B (NF-kB) signaling pathway (AID 651749); also: % of control where 0% means no effect
- Experimental conditions: NF-kB-bla ME-180 cells, beta-lactamase FRET ratio, 16 h; active compounds read high
- Description: National Center for Advancing Translational Sciences [NCATS] NIH Chemical Genomics Center [NCGC] U.S. Environmental Protection Agency [EPA] National Institutes of Environmental Health Sciences [NIEHS] National Toxicology Program [NTP] […] This system quantitates NF-kB activity using a FRET-based assay system where beta-lactamase expression disrupts FRET, allowing for fluorescent measurement of activity. […]
Results filed as inconclusive are left out.

- Compound: "O=C(O)/C=C\\C(=O)O"
  Readout unit: "%"
  activation: -0.21
- Compound: "O=C(OCc1ccccc1)c1ccccc1"
  Readout unit: "%"
  activation: 0.212
- Compound: "CN(C)CCC(c1ccc(Cl)cc1)c1ccccn1 (stereo unspecified)"
  Readout unit: "%"
  activation: -0.341
- Compound: "Nc1cc(-c2ccncc2)c[nH]c1=O"
  Readout unit: "%"
  activation: -2.44
- Compound: "O=C(O)c1cc(O)c(O)c(O)c1"
  Readout unit: "%"
  activation: -0.583
- Compound: "Nc1nc2ccc([N+](=O)[O-])cc2s1"
  Readout unit: "%"
  activation: -0.326

###

- Assay explanation: qHTS for differential inhibitors of proliferation of Plasmodium falciparum line 3D7 (AID 1876)
- Experimental conditions: P. falciparum 3D7 proliferation inhibition; series mostly up to 28.7 µM
Records with an inconclusive call do not appear. The source made the active and inactive calls. Calls follow the shape of the dose curve; as a rule, active = well fitted curve in the direction sought with a large enough effect; inconclusive = small, poorly fitted or top-dose-only effect, or another doubt; inactive = no such curve, though single readings can be large or run the other way.
Classes used: 1 (yes) = active, 0 (no) = inactive

- Molecule: "S=C(S)OC1CC2CC1C1CCCC21 (stereo not drawn)"
  Qualitative label: "0 (no)"
- Molecule: "c1cnc2c(c1)ccc1cccnc12"
  Qualitative label: "1 (yes)"
- Molecule: "CN[C@H](CC(C)C)C(=O)N[C@H]1C(=O)N[C@@H](CC(N)=O)C(=O)N[C@H]2C(=O)N[C@H]3C(=O)N[C@H](C(=O)N[C@H](C(=O)O)c4cc(O)cc(O)c4-c4cc3ccc4O)[C@H](O)c3ccc(c(Cl)c3)Oc3cc2cc(c3O[C@@H]2O[C@H](CO)[C@@H](O)[C@H](O)[C@H]2O[C@H]2C[C@](C)(N)[C@H](O)[C@H](C)O2)Oc2ccc(cc2Cl)[C@H]1O"
  Qualitative label: "0 (no)"

###

- Target system: Flap endonuclease 1 (Homo sapiens)
- Assay explanation: qHTS Validation Assay for the Inhibitors of Human Flap endonuclease 1 (FEN1) (AID 488816)
- Experimental conditions: FEN1 nuclease activity, fluorogenic DNA substrate; series mostly up to 57.1 µM
- Protocol: The major human flap endonuclease FEN1 is an efficient structure-specific enzyme that recognizes and cleaves a 5'-unannealed DNA flap. […] Three uL of reagents (buffer in column 3 and 4 as negative control and 10 nM FEN1 in columns 1, 2, and 5-48) were dispensed into 1,536-well black solid-bottomed plate. […] The plates were then incubated for 15 min at room temperature, and 1 uL substrate (50 nM final concentration) were added to start the reaction read twice at 0 min read and 15 min on ViewLux reader. […]
The source made the active and inactive calls. Calls follow the shape of the dose curve; as a rule, active = well fitted inhibition curve with a large enough effect; inconclusive = small, poorly fitted or top-dose-only effect; inactive = flat fitted curve, though single readings scatter.
Classes used: 1 for active, 0 for inactive

- Compound: "O=Nc1ccc2oc(=O)ccc2c1"
  Target system: "Flap endonuclease 1 (Homo sapiens)"
  Qualitative label: 0
- Compound: "CCCN(CC1CC1)c1nc(C)nc(Nc2c(Cl)cc(Cl)cc2Cl)c1Cl"
  Target system: "Flap endonuclease 1 (Homo sapiens)"
  Qualitative label: 0
- Compound: "CC(COc1ccc(/C=C/c2ccccc2)cc1)[N+](C)(C)C (stereo not drawn)"
  Target system: "Flap endonuclease 1 (Homo sapiens)"
  Qualitative label: 0
- Compound: "COc1cc(OC)c(/C=C2/C(=O)Nc3ccccc32)c(OC)c1"
  Target system: "Flap endonuclease 1 (Homo sapiens)"
  Qualitative label: 0
- Compound: "CN1CCc2cc(O)c(O)cc2C(c2ccccc2)C1 (stereo not drawn)"
  Target system: "Flap endonuclease 1 (Homo sapiens)"
  Qualitative label: 0
- Compound: "NO"
  Target system: "Flap endonuclease 1 (Homo sapiens)"
  Qualitative label: 0
- Compound: "O=C(CCCCCN1CCN(c2ccccc2-c2ccccc2)CC1)NC1CCCc2ccccc21 (stereo not drawn)"
  Target system: "Flap endonuclease 1 (Homo sapiens)"
  Qualitative label: 0
- Compound: "Nc1ncnc2c1ncn2[C@@H]1O[C@H](COP(=O)(O)OP(=O)(O)OP(=O)(O)OP(=O)(O)OC[C@@H]2O[C@H](n3cnc4c(N)ncnc43)[C@@H](O)[C@H]2O)[C@@H](O)[C@H]1O"
  Target system: "Flap endonuclease 1 (Homo sapiens)"
  Qualitative label: 0
- Compound: "CCOC(=O)N1CCN(/[N+]([O-])=N/Oc2ccc([N+](=O)[O-])cc2[N+](=O)[O-])CC1"
  Target system: "Flap endonuclease 1 (Homo sapiens)"
  Qualitative label: 0
- Compound: "NC(CCCP(=O)(O)O)C(=O)O (stereo not drawn)"
  Target system: "Flap endonuclease 1 (Homo sapiens)"
  Qualitative label: 0
- Compound: "O=[N+]([O-])c1ccc2c(c1)S(=O)(=O)C=C2"
  Target system: "Flap endonuclease 1 (Homo sapiens)"
  Qualitative label: 0
- Compound: "NCCSSCCN"
  Target system: "Flap endonuclease 1 (Homo sapiens)"
  Qualitative label: 0
- Compound: "C=CC(=O)c1ccc(CCCCCC)cc1"
  Target system: "Flap endonuclease 1 (Homo sapiens)"
  Qualitative label: 0
- Compound: "O=C(O)/C=C/C(O)c1ccc(Cl)cc1 (stereo not drawn)"
  Target system: "Flap endonuclease 1 (Homo sapiens)"
  Qualitative label: 0
- Compound: "O=[N+]([O-])c1ccc(CSc2ncnc3c2ncn3[C@@H]2O[C@H](CO)[C@@H](O)[C@H]2O)cc1"
  Target system: "Flap endonuclease 1 (Homo sapiens)"
  Qualitative label: 0
- Compound: "N#C/C(=C\\c1ccc(O)c(O)c1)C(=O)NCc1ccccc1"
  Target system: "Flap endonuclease 1 (Homo sapiens)"
  Qualitative label: 0
- Compound: "O=C1NC(=O)/C(=C/c2ccc(-c3ccc(F)cc3O)o2)S1"
  Target system: "Flap endonuclease 1 (Homo sapiens)"
  Qualitative label: 1
- Compound: "Cc1cc(NC2CCCCC2)nc(-n2nc(C)cc2C)n1"
  Target system: "Flap endonuclease 1 (Homo sapiens)"
  Qualitative label: 0
- Compound: "COc1cccc(OC)c1OCCNCC1COc2ccccc2O1 (stereo not drawn)"
  Target system: "Flap endonuclease 1 (Homo sapiens)"
  Qualitative label: 0
- Compound: "O=C(O)c1cc([N+](=O)[O-])ccc1NCCCc1ccccc1"
  Target system: "Flap endonuclease 1 (Homo sapiens)"
  Qualitative label: 0
- Compound: "CC(C)(C=O)Cc1cc(C(C)(C)C)c(O)c(C(C)(C)C)c1"
  Target system: "Flap endonuclease 1 (Homo sapiens)"
  Qualitative label: 0
- Compound: "Nc1ncnc2c1ncn2[C@@H]1O[C@H](COP(=O)(O)CP(=O)(O)OP(=O)(O)O)[C@@H](O)[C@H]1O"
  Target system: "Flap endonuclease 1 (Homo sapiens)"
  Qualitative label: 0
- Compound: "c1ccc(-c2ccccn2)nc1"
  Target system: "Flap endonuclease 1 (Homo sapiens)"
  Qualitative label: 0

###

- Target system: Muscarinic acetylcholine receptor M1 (Rattus norvegicus)
- Assay explanation: qHTS Assay for Antagonists of Acetylcholine Muscarinic M1 Receptor: Kinetic Measurement of Intracellular Calcium Response (AID 943); also: nearly all actives have a fitted effect of over 75% in size
- Experimental conditions: M1-expressing cells, kinetic intracellular calcium fluorescence; series mostly up to 35.3 µM
- Description: NIH Molecular Libraries Screening Centers Network [MLSCN] NIH Chemical Genomics Center [NCGC] Acetylcholine muscarinic M1 receptor is a G-protein coupled receptor (GPCR) coupling to the Gq G protein. […] The increase of intracellular calcium can be measured by the fluorescent calcium dyes, Fluo-3 and Fluo-4, using a fluorescence kinetic plate reader. […] #- read the assay plate 6 times at 1 Hz for basal signal […] #- continuously read the assay plate for 4 min at 1 Hz […]
Results filed as inconclusive are left out. Activity calls are given as the source filed them. The call rests on the fitted dose curve; in most records, active means well fitted inhibition curve with a large enough effect; inconclusive means small, poorly fitted or top-dose-only effect; inactive means no such curve, though single readings can be large or run the other way.
Classes used: active, inactive

- Molecule: "CCN1/C(=C/C(C)=O)Sc2ccc(OC)cc21"
  Qualitative label: "inactive"
- Molecule: "NC(=O)C(=O)O"
  Qualitative label: "inactive"
- Molecule: "C[N+]1(C)CCC(OC(=O)C(c2ccccc2)c2ccccc2)CC1"
  Qualitative label: "active"
- Molecule: "N=C(N)SCCc1ccc(CCSC(=N)N)cc1"
  Qualitative label: "inactive"
- Molecule: "CC(C)(C=O)Cc1cc(C(C)(C)C)c(O)c(C(C)(C)C)c1"
  Qualitative label: "inactive"
- Molecule: "O=S(=O)(c1cccc2c(I)cccc12)N1CCCNCC1"
  Qualitative label: "inactive"
- Molecule: "N#C/C(=C\\c1ccc(O)c(O)c1)C(=O)NCc1ccccc1"
  Qualitative label: "inactive"

###

- System: Zika virus NS2B-NS3 protease
- Assay explanation: Primary screen GU AMC qHTS for Zika virus inhibitors (AID 1347154);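 also: 0% = no-inhibitor control and -100% = no-enzyme control; nearly all actives have a fitted effect of over 70% in size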
- Experimental conditions: Zika NS2B-NS3 unlinked protease, AMC fluorogenic substrate; series mostly up to 54.1 µM
Inconclusive results are not listed. Activity calls are given as the source filed them. Calls follow the shape of the dose curve; as a rule, active = well fitted inhibition curve with a large enough effect; inconclusive = small, poorly fitted or top-dose-only effect; inactive = flat fitted curve, though single readings scatter.

- Compound: "CCC1C(=O)OCC1Cc1cncn1C (stereo unspecified)"
  outcome: "inactive"
- Compound: "O=c1[nH]c2ccccc2n1CCCN1CCN(C(c2ccccc2)c2ccccc2)CC1"
  outcome: "inactive"
- Compound: "CNCC[C@H](Oc1ccc(C(F)(F)F)cc1)c1ccccc1"
  outcome: "inactive"
- Compound: "Cc1ccc(O)c(-n2nc3ccccc3n2)c1"
  outcome: "inactive"
- Compound: "Cc1c(Nc2ncccc2C(=O)O)cccc1C(F)(F)F"
  outcome: "inactive"
- Compound: "CC12C(=O)OC(=O)C1(C)C1CCC2O1 (stereo unspecified)"
  outcome: "inactive"
